- assayTarget: DLG1 PDZ2 (Homo sapiens)
- Construct: human DLG1 PDZ2 aa 311–407 in a modified pRSET vector 40; made in house; host or cells: E. coli BL21 Gold (DE3)
- Sequence (Q12959 311-407): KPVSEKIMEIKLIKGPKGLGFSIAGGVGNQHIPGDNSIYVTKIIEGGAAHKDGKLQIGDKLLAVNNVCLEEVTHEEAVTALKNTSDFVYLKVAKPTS
- protocolDetails: Phosphomimetic ProP-PD selection with NGS
- Format: binding
- conditionNotes: mean of selections 1-3; bait DLG1 PDZ2
The threshold is 0.0004. Values of Mean fraction #NGS counts wt peptide / total counts selection beneath it are tagged yes (1); values meeting or exceeding it are tagged no (0).

Examples with answers:
sequenceText	labelClass
ISYRRESAI	yes (1)
SSGSQHTNV	no (0)
VWLRKETRV	no (0)
TRLSQHTDV	no (0)
LPKIKETTV	no (0)
HFSSLESEV	yes (1)
RSRSISTDV	no (0)
RQTSYQGVL	no (0)
RATSWYSPY	no (0)
VVHTPETSV	yes (1)

**Query** Quick check: Mean fraction #NGS counts wt peptide / total counts selection of `ARVSKETPL` under 0.0004?
**Result** no (0)

**Query** Quick check: Mean fraction #NGS counts wt peptide / total counts selection of `VVSERISSV` under 0.0004?
**Result** no (0)

**Query** Quick check: Mean fraction #NGS counts wt peptide / total counts selection of `DSSILSTVV` under 0.0004?
**Result** yes (1)
